Active and inactive are the calls of the source.
System: Beta-adrenergic receptor kinase 1 (Homo sapiens, UniProt P25098) | Read-out: Kd; further: in the data inactive means no Kd found up to 30 µM
Sequence (P25098 whole entry): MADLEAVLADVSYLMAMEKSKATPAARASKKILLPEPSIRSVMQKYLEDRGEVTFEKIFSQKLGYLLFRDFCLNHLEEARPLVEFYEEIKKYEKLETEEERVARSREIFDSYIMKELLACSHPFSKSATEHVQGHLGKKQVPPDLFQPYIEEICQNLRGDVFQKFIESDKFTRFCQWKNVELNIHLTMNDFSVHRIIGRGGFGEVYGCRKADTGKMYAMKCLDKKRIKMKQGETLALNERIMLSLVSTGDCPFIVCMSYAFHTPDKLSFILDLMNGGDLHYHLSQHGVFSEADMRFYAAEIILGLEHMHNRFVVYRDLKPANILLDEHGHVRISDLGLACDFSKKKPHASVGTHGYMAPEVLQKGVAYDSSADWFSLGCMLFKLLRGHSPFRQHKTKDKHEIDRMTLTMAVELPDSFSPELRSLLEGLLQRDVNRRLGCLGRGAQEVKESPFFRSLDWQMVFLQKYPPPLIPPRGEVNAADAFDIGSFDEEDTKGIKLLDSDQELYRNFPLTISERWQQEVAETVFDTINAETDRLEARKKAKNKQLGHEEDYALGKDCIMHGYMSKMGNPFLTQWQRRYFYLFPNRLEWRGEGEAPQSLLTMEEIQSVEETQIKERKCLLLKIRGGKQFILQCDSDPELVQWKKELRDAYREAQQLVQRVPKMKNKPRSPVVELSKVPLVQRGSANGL

Please review the following examples before continuing.
{"columns": ["Compound", "Kd"],
 "data": [
  ["O=c1[nH]c([C@@H]2CCCN2)nc2c1oc1ccc(Cl)cc12", "> 30 µM (inactive)"],
  ["C=CCN(/C=C1/C(=O)O[C@H](COC)[C@@]2(C)C1=C(O)C(=O)C1=C2[C@H](OC(C)=O)C[C@]2(C)C(=O)CC[C@@H]12)CC=C [SONOLISIB]", "> 30 µM (inactive)"]
]}

Moving on to the next compound.
Enquiry: Look up Kd: c1cc(OCCN2CCCCC2)cc(-c2n[nH]c3ccc(-c4nc[nH]n4)cc23)c1 [CC-401]
Return: > 30 µM (inactive)
